ASSAYED SYSTEM: Cynomolgus T cell receptor on cynomolgus primary T cells (cynomolgus monkey)
PROCEDURE TEXT: cell-based or functional assay
VALUE KIND: IC50 (M), xCELLigence CHO Flp-In huCD123 cell killing, Cynomolgus T cell mediated killing
Write down the numeric answer in M and omit the unit.

Consider the following illustrative entries.
T017000633 (bispecific antibody) DVQLVESGGGVVQPGGSLRLSCVASGYVHKINFYGWYRQAPGKEREKVAHISIGDQTDYADSAKGRFTISRDESKNTVYLQMNSLRPEDTALYYCRALSRIWPYDYWGQGTLVTVSSGGGGSGGGGSGGGGSGGGGSGGGGSGGGGSGGGGSEVQLVESGGGLVQAGGSLRLSCAASGITSKINDMGWYRQTPGNYREWVASITATGTTNYRDSVKGRFTISRDNAKSTVYLQMNSLKPEDTTVYYCNTFPPISNFWGQGTLVTVSSA ... 5.1e-12
T017000131 (bispecific antibody, also called A0110056A10(E1D)-35GS-T0170056G05-A) DVQLVESGGGLVQAGGSLRLSCAASGITSKINDMGWYRQTPGNYREWVASITATGTTNYRDSVKGRFTISRDNAKSTVYLQMNSLKPEDTTVYYCNTFPPISNFWGQGTLVTVSSGGGGSGGGGSGGGGSGGGGSGGGGSGGGGSGGGGSEVQLVESGGGLVQPGGSLRLSCVASGDVHKINFLGWYRQAPGKEREKVAHISIGDQTDYADSAKGRFTISRDESKNMVYLQMNSLKPEDTAVYFCRAFSRIYPYDYWGQGTLVTVSSA ... 8.1e-11

Value of IC50 (M), xCELLigence CHO Flp-In huCD123 cell killing, Cynomolgus T cell mediated killing reported for the binder T017000128 (bispecific antibody) DVQLVESGGGLVQPGGSLRLSCVASGDVHKINFLGWYRQAPGKEREKVAHISIGDQTDYADSAKGRFTISRDESKNMVYLQMNSLKPEDTAVYFCRAFSRIYPYDYWGQGTLVTVSSGGGGSGGGGSGGGGSGGGGSGGGGSGGGGSGGGGSEVQLVESGGGLVQAGGSLRLSCAASGITSKINDMGWYRQTPGNYREWVASITATGTTNYRDSVKGRFTISRDNAKSTVYLQMNSLKPEDTTVYYCNTFPPISNFWGQGTLVTVSSA is 1.9e-11
